- Species on record: Cricetulus griseus
- TEST METHOD NOTES: Extra cellular concentration of radiolabeled compound was determined in chinese hamster V79 lung fibroblasts
- Format: functional
Rule: Concentration of 1 uCi ml-1 or more gives Met; anything lower gives Not met.

> print(dat)
                                   molecule  assigned.category
1  COC(=O)c1ccccc1C1c2ccc(N)cc2Oc2c1ccc(N)c2I (stereo not given)                Met
2  COC(=O)c1ccccc1C1c2ccc(N)cc2Oc2cc(N)c(I)cc21 (stereo not given)            Not met
3  COC(=O)c1ccccc1C1c2cc(I)c(N)cc2Oc2cc(N)c(I)cc21            Not met
4  COC(=O)c1ccccc1C1c2cc(I)c(N)cc2Oc2c1cc(I)c(N)c2I (stereo not given)                Met
5  COC(=O)c1ccccc1C1c2cc(I)c(N)cc2Oc2c1ccc(N)c2I (stereo not given)                Met
